target: Na^+,K^+ -ATPase receptor (Homo sapiens, UniProt P05023); construct: receptor purified according to Jorghensen (Jorghensen P., BBA, 1974, 356, 36); from tissue; kidney outer medulla inferred from the cited Jorgensen method; assay: displacement of the specific ^3 H-ouabain binding from the purified Na^+,K^+ -ATPase receptor; details: ^3 H-ouabain displacement, read-out: Binding ^3 H-Ouab. Displacement log IC50 (converted)
compounds and their reported IC50
ATTRIBUTE_MEASURED: IC50

C[C@]12CC[C@H](OCCOCCN3CCCC3)C[C@H]1CC[C@@H]1[C@@H]2CC[C@]2(C)[C@@](O)(c3ccoc3)CC[C@]12O [Comp. I-w]: 0.631 µM
CO[C@]1(c2ccoc2)CC[C@]2(O)[C@@H]3CC[C@@H]4C[C@@H](OCCN5CCCC5)CC[C@]4(C)[C@H]3CC[C@]12C [Comp. I-f]: 5.01 µM
C[C@]12CC[C@H](OCC(N)CN)C[C@H]1CC[C@@H]1[C@@H]2CC[C@]2(C)[C@@](O)(c3ccoc3)CC[C@]12O (stereo partly shown) [Comp. I-z]: 0.631 µM
C[C@]12CCC(=NN=C(N)N)C[C@H]1CC[C@@H]1[C@@H]2CC[C@]2(C)[C@@](O)(c3ccoc3)CC[C@]12O [Comp. I-k]: 1 µM
C[C@]12CC[C@H](SCCCN)C[C@H]1CC[C@@H]1[C@@H]2CC[C@@]2(C)[C@@]13O[C@@H]3C[C@]2(O)c1ccoc1 [Comp. I-r]: 3.98 µM
C[C@]12CC[C@H](O)C[C@H]1CC[C@@H]1[C@@H]2CC[C@]2(C)[C@@](O)(c3ccoc3)CC[C@]12O [Comp. I-a]: 1.58 µM
CNCCO[C@H]1CC[C@@]2(C)[C@H](CC[C@@H]3[C@@H]2CC[C@]2(C)[C@@](O)(c4ccoc4)CC[C@]32O)C1 [Comp. I-x]: 0.501 µM
